Recorded IC50 for compounds tested on PIK3CB (Human), drawn from a number of studies.

Worked examples follow.
- compound: "Cc1nc2ncc(-c3ccc4c(c3)CN(c3nc(CN(C)C)nc5c3CC(C)(C)CC5)CCO4)cc2[nH]1"
  targetOrTestSystem: "PIK3CB (Human)"
  IC50: "> 3 µM"
- compound: "C[C@H](Nc1nc(N)ncc1-c1ccccn1)c1cc2cccc(Cl)c2c(=O)n1-c1ccccc1"
  targetOrTestSystem: "PIK3CB (Human)"
  IC50: "1 to 10 µM"
- compound: "Nc1noc2c(-c3ccc4ncc(C(=O)N5CCOCC5)n4c3)cccc12"
  targetOrTestSystem: "PIK3CB (Human)"
  IC50: "> 10 µM"
- compound: "COc1cncc(-c2cccc3cc([C@H](C)Nc4nc(N)ncc4C(N)=O)n(-c4ccccc4)c(=O)c23)c1"
  targetOrTestSystem: "PIK3CB (Human)"
  IC50: "1 to 10 µM"
- compound: "Cc1cccc2cc(Cn3nc(I)c4c(N)ncnc43)n(-c3ccccc3O)c(=O)c12"
  targetOrTestSystem: "PIK3CB (Human)"
  IC50: "> 10 µM"

Query block: Requested read-out IC50, target or system PIK3CB (Human), entry `C[C@H](NC(=O)c1c(N)nn2cccnc12)c1cc2cccc(NC3CCCCC3)c2c(=O)n1-c1ccccc1`
Result block: > 10 µM

Query block: Item `CC(C)n1c([C@H](C)Nc2ncnc(N)c2C#N)cc2cccc(Cl)c2c1=O` with PIK3CB (Human) - IC50?
Result block: 1 to 10 µM

Query block: // fetch PIK3CB (Human) IC50 for `CNC(=O)Nc1ccc(-c2nc(N3CCOC[C@H]3C)nc3c2cnn3CC(C)(C)O)cc1`
Result block: > 0.1 µM

Query block: Reported IC50 for PIK3CB (Human), given `Cc1nc(NC(=O)N2CC[C@@H](CN(C)C)[C@H]2C(N)=O)sc1-c1ccnc(C(C)(C)C(F)(F)F)c1` ?
Result block: 3.27 µM

Query block: Give PIK3CB (Human) IC50 for `Cn1ncc2c(Nc3ccc(C(N)=O)cc3)nc(-c3cccc(Cl)c3)nc21`
Result block: 1.62 µM

Query block: What value of IC50 on PIK3CB (Human) does CC(c1cc(C(=O)NCCN(C)C)cc2c(=O)cc(N3CCOCC3)oc12)N(C)c1ccc(F)c(F)c1 (stereo not shown) have?
Result block: 0.006 µM

Query block: State its IC50 on PIK3CB (Human): `Cc1cccnc1-n1c(Cn2nc(-c3cc(O)cc(F)c3)c3c(N)ncnc32)nc2scc(C)c2c1=O`
Result block: < 10 µM

Query block: Record lookup: for PIK3CB (Human), what IC50 belongs to `Cn1ncc2c(-c3ccc4ncc(C(=O)N5CCOCC5)n4c3)cncc21` ?
Result block: > 10 µM

Query block: Report IC50 for `Cc1nn(C)cc1-c1cc(N2CCOCC2)c2nc(C(=O)N3CCC(N4C[C@@H](C)O[C@@H](C)C4)CC3)[nH]c2n1` tested on PIK3CB (Human).
Result block: 1.15 µM

Query block: What is its IC50 for PIK3CB (Human)? Entry: `Cc1cccc2cc([C@H](C)Nc3nc(N)ncc3F)n(C3CC3)c(=O)c12`
Result block: < 10 µM

Query block: Which measured IC50 belongs to `Cc1csc2nc(Cn3nc(-c4ccc(F)c(O)c4)c4c(N)ncnc43)n(-c3ccccc3F)c(=O)c12` , tested on PIK3CB (Human)?
Result block: > 10 µM

* * *

pIC50: −log10 of the molar value.
# merged literature set: pIC50 with PIK3CB (Human) (UniProt P42338)

Solved cases (3 shown):
- molecule: "CN1CCCC1CCNC(=O)c1nc2c(N3CCOCC3)nc(-c3cnn(C)c3)nc2[nH]1 (stereo not shown)"
  targetOrTestSystem: "PIK3CB (Human) (UniProt P42338)"
  pIC50: "< 5.00"
- molecule: "Nc1nc2cc(-c3ccc4ncc(C(=O)N5CCOCC5)cc4c3)ccc2o1"
  targetOrTestSystem: "PIK3CB (Human) (UniProt P42338)"
  pIC50: "< 5.00"
- molecule: "Cc1cccc2cc(Cn3nc(CF)c4c(N)ncnc43)n(-c3ccccc3)c(=O)c12"
  targetOrTestSystem: "PIK3CB (Human) (UniProt P42338)"
  pIC50: "< 5.00"

// moving on: another record for pIC50
Query block: Recorded pIC50 for Cc1nc2c(-c3nnc[nH]3)cc(-c3ccncc3F)cc2n1-c1ccnc2c(Cl)cccc12 (single isomer, unassigned) , please?
Result block: 7.00

* * *

Let's look at some pIC50 data for PIK3CB (Human) (UniProt P42338) that I collected from the literature.
pIC50: −log10 of the molar value.

- molecule: "CCN(CC)c1ncc2c(n1)-c1sc(NC(=O)N3CCC[C@@]3(C)C(N)=O)nc1CC2"
  pIC50: 6.84

Query block: Report pIC50 for CCC(Nc1ncnc2[nH]cnc12)c1cc2cccc(C)c2c(=O)n1C1CCN(C)CC1 (centres unmarked) tested on PIK3CB (Human) (UniProt P42338).
Result block: > 5.00

Query block: Param readout = pIC50; param system = PIK3CB (Human) (UniProt P42338); param query = `Nc1nc2cc(-c3ccn4ncc(C(=O)N5CCOCC5)c4c3)ccc2o1` ; response: value
Result block: > 5.00

Query block: What measured pIC50 is associated with `O=C(c1cnc2ccc(-c3cccc(NS(=O)(=O)c4ccc(F)cc4F)c3)cn12)N1CCOCC1` on PIK3CB (Human) (UniProt P42338)?
Result block: < 5.00

Query block: What value of pIC50 on PIK3CB (Human) (UniProt P42338) does `Cc1cc(-c2cccc3nc([C@H](C)Nc4nc(N)ncc4C#N)n(-c4ccccc4)c(=O)c23)ccn1` have?
Result block: 5.00 to 6.00

* * *

pIC50: −log10 of the molar value.
// read-out pIC50, gathered for PIK3CB (Human) from published studies

Answered examples (3):
- chemicalString: "Nc1nc2cc(-c3ccc4ncnc(NC5CCOCC5)c4c3)ccc2o1"
  pIC50: "> 6.00"
- chemicalString: "NC(=O)[C@@H]1CCCN1C(=O)c1cnc2ccc(-c3ccc4oc(N)nc4c3)cn12"
  pIC50: "< 5.00"
- chemicalString: "CCN(CC)CCNC(=O)c1cnc2ccc(-c3ccc4oc(N)nc4c3)cn12"
  pIC50: "> 6.00"

Query block: Field: pIC50 (PIK3CB (Human)). Entry: `Nc1nc2cc(-c3ccc4ncc(-c5ccc(N6CCOCC6)nc5)nc4c3)ccc2o1`
Result block: < 5.00

Query block: GET /values?readout=pIC50&system=PIK3CB (Human)&item= `Nc1nc2cc(-c3ccn4ncc(C(=O)N5CCC(N6CCOCC6)CC5)c4c3)ccc2o1`
Result block: > 5.00

Query block: API: value(readout=pIC50, system=PIK3CB (Human)) for record `Cc1cc(-c2cccc3cc([C@H](C)Nc4ncnc5scnc45)n(-c4ccccc4)c(=O)c23)cnc1C`
Result block: 5.00 to 6.00

Query block: Recall the recorded pIC50 for `Cc1cccc2cc(Cn3nc(-c4ccc(O)cc4)c4c(N)ncnc43)n(-c3ccccc3F)c(=O)c12` with PIK3CB (Human) and state it.
Result block: < 5.00

Query block: Find the measured pIC50: item `Nc1nc2cc(-c3ccc4ncc(-c5cccnc5)cc4n3)ccc2o1` , target or system PIK3CB (Human).
Result block: > 5.00

Query block: Notebook entry, PIK3CB (Human) assay: pIC50 of `CC(=O)Nc1nc2ccc(-c3ccc4nc(N)oc4c3)cc2s1` = ?
Result block: > 7.00

* * *

Below, pIC50 values reported for PIK3CB (Human) across several publications.
pIC50: −log10 of the molar value.

- compound: "Nc1nc2cc(-c3ccc4ncc(N5CCN(C(=O)[C@H](N)CO)CC5)nc4c3)ccc2o1"
  targetOrTestSystem: "PIK3CB (Human)"
  resultValue: "> 6.00"
- compound: "C[C@H](Nc1ncnc2[nH]cnc12)c1cc2cccc(Cl)c2c(SCCN2CCCC2)n1"
  targetOrTestSystem: "PIK3CB (Human)"
  resultValue: "> 5.00"

Query block: Missing value: pIC50, PIK3CB (Human), entry `Cc1ccccc1-n1c(Cn2nc(C#C[C@@H](C)O)c3c(N)ncnc32)cc2cccc(F)c2c1=O` . Fill in?
Result block: < 5.00

Query block: Give the reported pIC50 for `Cn1nc(C2CCN(C(=O)CC(=O)O)CC2)nc1-c1cnc(N)c(-c2nnc(C(C)(C)C)o2)n1` (system: PIK3CB (Human)).
Result block: 5.82

Query block: // lookup pIC50 | system=PIK3CB (Human) | key= `C[C@H]1CN(C2CN(c3cnc4ccc(-c5ccc6oc(N)nc6c5)nc4n3)C2)CCN1`
Result block: < 5.00
